conditions: in acetonitrile, 283.15 K

{"columns": ["COMPOUND STRUCTURE", "solubility (mole fraction)"],
 "data": [
  ["Nc1ccc(S(=O)(=O)O)cc1", 0.000144]
]}

###

details: in ethanol, 313.15 K

{"columns": ["COMPOUND STRUCTURE", "solubility (mole fraction)"],
 "data": [
  ["Nc1ccc(S(=O)(=O)O)cc1", 0.000338]
]}

###

conditions: in acetonitrile, 318.15 K
ENDPOINT: solubility (mole fraction)

{"columns": ["COMPOUND STRUCTURE", "NUMERIC VALUE"],
 "data": [
  ["Nc1ccc(S(=O)(=O)O)cc1", 0.000274]
]}

###

settings: in acetone, 288.15 K

{"columns": ["COMPOUND STRUCTURE", "solubility (mole fraction)"],
 "data": [
  ["Nc1ccc(S(=O)(=O)O)cc1", 0.000303]
]}

###

details: in isopropanol, 313.15 K
ENDPOINT: solubility (mole fraction)

{"columns": ["COMPOUND STRUCTURE", "NUMERIC VALUE"],
 "data": [
  ["Nc1ccc(S(=O)(=O)O)cc1", 0.000429]
]}

###

settings: in isopropanol, 318.15 K
ENDPOINT: solubility (mole fraction)

{"columns": ["COMPOUND STRUCTURE", "NUMERIC VALUE"],
 "data": [
  ["Nc1ccc(S(=O)(=O)O)cc1", 0.000461]
]}

###

details: in acetone, 328.15 K

{"columns": ["COMPOUND STRUCTURE", "solubility (mole fraction)"],
 "data": [
  ["Nc1ccc(S(=O)(=O)O)cc1", 0.00036]
]}

###

details: in acetonitrile, 313.15 K

{"columns": ["COMPOUND STRUCTURE", "solubility (mole fraction)"],
 "data": [
  ["Nc1ccc(S(=O)(=O)O)cc1", 0.000255]
]}

###

details: in methanol, 328.15 K

{"columns": ["COMPOUND STRUCTURE", "solubility (mole fraction)"],
 "data": [
  ["Nc1ccc(S(=O)(=O)O)cc1", 0.00045]
]}

###

settings: in formic acid, 283.15 K
ENDPOINT: solubility (mole fraction)

{"columns": ["COMPOUND STRUCTURE", "ENDPOINT", "NUMERIC VALUE"],
 "data": [
  ["Nc1ccc(S(=O)(=O)O)cc1", "solubility (mole fraction)", 0.00116]
]}

###

conditions: in methanol, 318.15 K
ENDPOINT: solubility (mole fraction)

{"columns": ["COMPOUND STRUCTURE", "NUMERIC VALUE"],
 "data": [
  ["Nc1ccc(S(=O)(=O)O)cc1", 0.000403]
]}

###

details: in acetic acid, 308.15 K

{"columns": ["COMPOUND STRUCTURE", "solubility (mole fraction)"],
 "data": [
  ["Nc1ccc(S(=O)(=O)O)cc1", 0.00252]
]}

###

details: in methanol, 308.15 K
ENDPOINT: solubility (mole fraction)

{"columns": ["COMPOUND STRUCTURE", "ENDPOINT", "NUMERIC VALUE"],
 "data": [
  ["Nc1ccc(S(=O)(=O)O)cc1", "solubility (mole fraction)", 0.000362]
]}

###

conditions: in acetic acid, 323.15 K
ENDPOINT: solubility (mole fraction)

{"columns": ["COMPOUND STRUCTURE", "NUMERIC VALUE"],
 "data": [
  ["Nc1ccc(S(=O)(=O)O)cc1", 0.00291]
]}

###

conditions: in acetic acid, 318.15 K

{"columns": ["COMPOUND STRUCTURE", "solubility (mole fraction)"],
 "data": [
  ["Nc1ccc(S(=O)(=O)O)cc1", 0.00277]
]}

###

conditions: in formic acid, 288.15 K
ENDPOINT: solubility (mole fraction)

{"columns": ["COMPOUND STRUCTURE", "NUMERIC VALUE"],
 "data": [
  ["Nc1ccc(S(=O)(=O)O)cc1", 0.00129]
]}

###

conditions: in isopropanol, 283.15 K
ENDPOINT: solubility (mole fraction)

{"columns": ["COMPOUND STRUCTURE", "ENDPOINT", "NUMERIC VALUE"],
 "data": [
  ["Nc1ccc(S(=O)(=O)O)cc1", "solubility (mole fraction)", 0.00027]
]}

###

settings: in ethanol, 298.15 K

{"columns": ["COMPOUND STRUCTURE", "solubility (mole fraction)"],
 "data": [
  ["Nc1ccc(S(=O)(=O)O)cc1", 0.000284]
]}

###

settings: in acetone, 298.15 K

{"columns": ["COMPOUND STRUCTURE", "solubility (mole fraction)"],
 "data": [
  ["Nc1ccc(S(=O)(=O)O)cc1", 0.000317]
]}

###

conditions: in acetone, 303.15 K
ENDPOINT: solubility (mole fraction)

{"columns": ["COMPOUND STRUCTURE", "ENDPOINT", "RESULT"],
 "data": [
  ["Nc1ccc(S(=O)(=O)O)cc1", "solubility (mole fraction)", 0.000324]
]}

###

conditions: in formic acid, 313.15 K
ENDPOINT: solubility (mole fraction)

{"columns": ["COMPOUND STRUCTURE", "NUMERIC VALUE"],
 "data": [
  ["Nc1ccc(S(=O)(=O)O)cc1", 0.00196]
]}

###

conditions: in acetonitrile, 288.15 K

{"columns": ["COMPOUND STRUCTURE", "solubility (mole fraction)"],
 "data": [
  ["Nc1ccc(S(=O)(=O)O)cc1", 0.000165]
]}

###

conditions: in isopropanol, 293.15 K

{"columns": ["COMPOUND STRUCTURE", "solubility (mole fraction)"],
 "data": [
  ["Nc1ccc(S(=O)(=O)O)cc1", 0.000318]
]}

###

details: in acetic acid, 328.15 K
ENDPOINT: solubility (mole fraction)

{"columns": ["COMPOUND STRUCTURE", "NUMERIC VALUE"],
 "data": [
  ["Nc1ccc(S(=O)(=O)O)cc1", 0.00304]
]}

###

details: in isopropanol, 288.15 K
ENDPOINT: solubility (mole fraction)

{"columns": ["COMPOUND STRUCTURE", "NUMERIC VALUE"],
 "data": [
  ["Nc1ccc(S(=O)(=O)O)cc1", 0.000303]
]}

###

settings: in formic acid, 308.15 K
ENDPOINT: solubility (mole fraction)

{"columns": ["COMPOUND STRUCTURE", "ENDPOINT", "NUMERIC VALUE"],
 "data": [
  ["Nc1ccc(S(=O)(=O)O)cc1", "solubility (mole fraction)", 0.00181]
]}

###

details: in ethanol, 303.15 K

{"columns": ["COMPOUND STRUCTURE", "solubility (mole fraction)"],
 "data": [
  ["Nc1ccc(S(=O)(=O)O)cc1", 0.0003]
]}

###

details: in methanol, 278.15 K
ENDPOINT: solubility (mole fraction)

{"columns": ["COMPOUND STRUCTURE", "ENDPOINT", "NUMERIC VALUE"],
 "data": [
  ["Nc1ccc(S(=O)(=O)O)cc1", "solubility (mole fraction)", 0.000247]
]}

###

details: in formic acid, 323.15 K

{"columns": ["COMPOUND STRUCTURE", "solubility (mole fraction)"],
 "data": [
  ["Nc1ccc(S(=O)(=O)O)cc1", 0.00231]
]}

###

conditions: in formic acid, 303.15 K

{"columns": ["COMPOUND STRUCTURE", "solubility (mole fraction)"],
 "data": [
  ["Nc1ccc(S(=O)(=O)O)cc1", 0.00166]
]}

###

settings: in methanol, 293.15 K

{"columns": ["COMPOUND STRUCTURE", "solubility (mole fraction)"],
 "data": [
  ["Nc1ccc(S(=O)(=O)O)cc1", 0.000299]
]}

###

conditions: in acetonitrile, 308.15 K

{"columns": ["COMPOUND STRUCTURE", "solubility (mole fraction)"],
 "data": [
  ["Nc1ccc(S(=O)(=O)O)cc1", 0.000235]
]}

###

details: in acetic acid, 298.15 K

{"columns": ["COMPOUND STRUCTURE", "solubility (mole fraction)"],
 "data": [
  ["Nc1ccc(S(=O)(=O)O)cc1", 0.00227]
]}

###

settings: in isopropanol, 278.15 K
ENDPOINT: solubility (mole fraction)

{"columns": ["COMPOUND STRUCTURE", "NUMERIC VALUE"],
 "data": [
  ["Nc1ccc(S(=O)(=O)O)cc1", 0.000253]
]}

###

conditions: in acetic acid, 313.15 K

{"columns": ["COMPOUND STRUCTURE", "solubility (mole fraction)"],
 "data": [
  ["Nc1ccc(S(=O)(=O)O)cc1", 0.00264]
]}
